Data credit: ChEMBL document CHEMBL4373706

assay: Cmax in Sprague-Dawley rat at 50 mg/kg, po administered via gastric gavage by LC-MS/MS analysis; type: ADME, organism-based; set-up: dose 50 mg/kg, route oral; settings: in vivo
measured.metric: Cmax (µg/mL)
// return numeric value only (unit: µg/mL, not printed)

Task: State the recorded Cmax for this entry: O=C(Nc1ccc2cc(C(=O)Nc3nccs3)ccc2c1)c1ccc(Cl)c(Cl)c1
Result: 25.1

----------
biological target: UniProt:Q96GD4
Sequence (Q96GD4 whole entry): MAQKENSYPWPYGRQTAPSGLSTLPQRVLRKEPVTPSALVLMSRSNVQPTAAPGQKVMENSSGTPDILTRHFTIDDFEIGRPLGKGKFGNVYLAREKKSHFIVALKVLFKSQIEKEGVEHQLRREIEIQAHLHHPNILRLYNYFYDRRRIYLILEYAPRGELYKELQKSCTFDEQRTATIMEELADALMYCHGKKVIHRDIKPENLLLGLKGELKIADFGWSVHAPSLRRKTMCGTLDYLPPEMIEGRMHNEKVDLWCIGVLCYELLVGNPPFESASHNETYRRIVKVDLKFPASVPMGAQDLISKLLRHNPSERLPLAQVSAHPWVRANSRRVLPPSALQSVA
measured.metric: pKd
The value called pKd is obtained by taking minus log10 of the concentration in mol/L.

Task: Form: Entry = O=C(Nc1ccc2cc(C(=O)Nc3nccs3)ccc2c1)c1ccc(Cl)c(Cl)c1 | System = UniProt:Q96GD4 | pKd = ____
Result: 7.11

----------
target: Aurora kinase A (Homo sapiens, UniProt O14965)
Sequence (O14965 whole entry): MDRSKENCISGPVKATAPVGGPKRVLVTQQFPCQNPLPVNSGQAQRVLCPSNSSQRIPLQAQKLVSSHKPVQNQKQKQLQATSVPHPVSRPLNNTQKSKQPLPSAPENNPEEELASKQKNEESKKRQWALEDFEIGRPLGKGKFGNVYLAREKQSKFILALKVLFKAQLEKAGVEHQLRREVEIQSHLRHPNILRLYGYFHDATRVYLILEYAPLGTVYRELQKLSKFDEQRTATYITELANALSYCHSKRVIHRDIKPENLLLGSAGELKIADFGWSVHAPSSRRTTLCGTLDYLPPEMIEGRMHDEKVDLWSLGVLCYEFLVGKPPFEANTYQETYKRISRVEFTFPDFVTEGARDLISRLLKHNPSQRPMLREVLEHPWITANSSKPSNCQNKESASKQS
measured.metric: pKd
The value called pKd is obtained by taking minus log10 of the concentration in mol/L.

Task: Form: Entry = O=C(Nc1ccc2cc(C(=O)Nc3nccs3)ccc2c1)c1ccc(Cl)c(Cl)c1 | System = Aurora kinase A (Homo sapiens, UniProt O14965) | pKd = ____
Result: 7.64

----------
assay: Lipid/water partition coefficient, log D of the compound; format: physicochemical
measured.metric: logD
// response body must contain only the number

Task: State the recorded logD for this entry: O=C(Nc1ccc2cc(C(=O)Nc3nccs3)ccc2c1)c1ccc(Cl)c(Cl)c1
Result: 4.8

----------
target: Cyclin-dependent kinase 6 (Homo sapiens, UniProt Q00534); test: Binding affinity to wild-type human full-length CDK6 (M1 to A326 residues) expressed in mammalian expression system measured after 1 hr by kinomescan method; details: pooled result: one value given for 15 cell lines, strains, targets or settings
Sequence (Q00534 whole entry, the tested form may be a part): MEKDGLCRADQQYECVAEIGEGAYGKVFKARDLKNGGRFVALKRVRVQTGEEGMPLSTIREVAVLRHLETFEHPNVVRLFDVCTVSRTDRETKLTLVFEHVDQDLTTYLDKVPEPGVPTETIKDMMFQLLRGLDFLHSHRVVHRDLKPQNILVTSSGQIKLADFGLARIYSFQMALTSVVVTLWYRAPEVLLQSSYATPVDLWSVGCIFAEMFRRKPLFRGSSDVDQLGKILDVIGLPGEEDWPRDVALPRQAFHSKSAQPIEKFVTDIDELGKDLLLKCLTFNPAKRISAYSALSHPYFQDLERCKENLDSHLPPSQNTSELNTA
measured.metric: pKd
The value called pKd is obtained by taking minus log10 of the concentration in mol/L.

Task: State the recorded pKd for this entry: O=C(Nc1ccc2cc(C(=O)Nc3nccs3)ccc2c1)c1ccc(Cl)c(Cl)c1
Result: 5.10

----------
assay: Half life in Sprague-Dawley rat at 50 mg/kg, po administered via gastric gavage by LC-MS/MS analysis; format: ADME, organism-based; details: in vivo
measured.metric: half-life (h)
// return numeric value only (unit: h, not printed)

Task: State the recorded half-life for this entry: O=C(Nc1ccc2cc(C(=O)Nc3nccs3)ccc2c1)c1ccc(Cl)c(Cl)c1
Result: 11.8

----------
target: Serine/threonine-protein kinase PLK2 (Homo sapiens, UniProt Q9NYY3)
Sequence (Q9NYY3 whole entry): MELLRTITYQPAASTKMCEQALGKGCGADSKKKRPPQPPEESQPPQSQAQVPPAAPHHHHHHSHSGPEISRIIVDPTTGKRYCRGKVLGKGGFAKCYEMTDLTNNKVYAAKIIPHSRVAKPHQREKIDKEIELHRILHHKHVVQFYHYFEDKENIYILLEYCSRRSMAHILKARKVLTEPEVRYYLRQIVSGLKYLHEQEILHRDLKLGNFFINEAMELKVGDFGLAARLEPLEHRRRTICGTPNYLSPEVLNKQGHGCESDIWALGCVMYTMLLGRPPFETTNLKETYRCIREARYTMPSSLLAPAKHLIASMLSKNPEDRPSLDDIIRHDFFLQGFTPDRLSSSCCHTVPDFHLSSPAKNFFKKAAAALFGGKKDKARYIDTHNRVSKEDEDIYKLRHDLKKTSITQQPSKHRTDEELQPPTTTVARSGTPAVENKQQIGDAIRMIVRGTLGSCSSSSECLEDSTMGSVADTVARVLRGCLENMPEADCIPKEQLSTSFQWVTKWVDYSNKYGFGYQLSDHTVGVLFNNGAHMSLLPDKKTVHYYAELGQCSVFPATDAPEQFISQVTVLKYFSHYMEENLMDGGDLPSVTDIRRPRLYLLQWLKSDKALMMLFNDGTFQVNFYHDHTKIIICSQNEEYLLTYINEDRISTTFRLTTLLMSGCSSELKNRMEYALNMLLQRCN
measured.metric: pKd
The value called pKd is obtained by taking minus log10 of the concentration in mol/L.

Task: Form: Entry = O=C(Nc1ccc2cc(C(=O)Nc3nccs3)ccc2c1)c1ccc(Cl)c(Cl)c1 | System = Serine/threonine-protein kinase PLK2 (Homo sapiens, UniProt Q9NYY3) | pKd = ____
Result: 6.57

----------
Target: Phosphatidylinositol 4,5-bisphosphate 3-kinase catalytic subunit delta isoform (Homo sapiens, UniProt O00329)
Sequence (O00329 whole entry): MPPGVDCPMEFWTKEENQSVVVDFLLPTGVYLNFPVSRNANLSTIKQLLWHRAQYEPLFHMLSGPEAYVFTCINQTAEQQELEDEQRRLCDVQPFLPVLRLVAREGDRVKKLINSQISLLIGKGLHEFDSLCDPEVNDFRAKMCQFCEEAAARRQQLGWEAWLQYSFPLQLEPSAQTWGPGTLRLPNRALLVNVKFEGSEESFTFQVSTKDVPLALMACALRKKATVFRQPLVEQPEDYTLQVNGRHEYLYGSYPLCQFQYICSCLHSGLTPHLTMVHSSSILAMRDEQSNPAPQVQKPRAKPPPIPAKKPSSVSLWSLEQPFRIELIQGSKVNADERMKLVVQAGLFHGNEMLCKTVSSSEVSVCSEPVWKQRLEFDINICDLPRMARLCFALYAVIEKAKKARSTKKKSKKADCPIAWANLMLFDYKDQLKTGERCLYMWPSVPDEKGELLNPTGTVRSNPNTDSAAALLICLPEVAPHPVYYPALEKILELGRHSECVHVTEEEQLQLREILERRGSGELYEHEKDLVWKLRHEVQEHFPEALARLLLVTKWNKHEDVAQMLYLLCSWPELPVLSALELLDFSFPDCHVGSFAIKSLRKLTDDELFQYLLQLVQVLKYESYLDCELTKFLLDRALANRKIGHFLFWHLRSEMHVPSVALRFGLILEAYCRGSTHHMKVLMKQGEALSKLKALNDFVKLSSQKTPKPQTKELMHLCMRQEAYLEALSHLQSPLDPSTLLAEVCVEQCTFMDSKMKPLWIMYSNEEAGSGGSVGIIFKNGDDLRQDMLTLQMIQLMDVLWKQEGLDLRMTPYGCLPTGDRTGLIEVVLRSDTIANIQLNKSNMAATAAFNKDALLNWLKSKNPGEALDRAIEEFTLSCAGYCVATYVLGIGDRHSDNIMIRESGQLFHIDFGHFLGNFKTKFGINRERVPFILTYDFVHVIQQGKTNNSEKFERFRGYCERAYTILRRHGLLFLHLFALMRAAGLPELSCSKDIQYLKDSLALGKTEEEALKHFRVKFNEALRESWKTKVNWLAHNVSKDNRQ
Test: Binding affinity to wild-type human partial length PIK3CD (R108 to Q1044 residues) expressed in mammalian expression system measured after 1 hr by kinomescan method
Conditions: pooled result: one value given for 15 cell lines, strains, targets or settings
measured.metric: pKd
The value called pKd is obtained by taking minus log10 of the concentration in mol/L.

Task: State the recorded pKd for this entry: O=C(Nc1ccc2cc(C(=O)Nc3nccs3)ccc2c1)c1ccc(Cl)c(Cl)c1
Result: 5.15

----------
Biological target: UniProtKB Q9UQB9
Sequence (Q9UQB9 whole entry): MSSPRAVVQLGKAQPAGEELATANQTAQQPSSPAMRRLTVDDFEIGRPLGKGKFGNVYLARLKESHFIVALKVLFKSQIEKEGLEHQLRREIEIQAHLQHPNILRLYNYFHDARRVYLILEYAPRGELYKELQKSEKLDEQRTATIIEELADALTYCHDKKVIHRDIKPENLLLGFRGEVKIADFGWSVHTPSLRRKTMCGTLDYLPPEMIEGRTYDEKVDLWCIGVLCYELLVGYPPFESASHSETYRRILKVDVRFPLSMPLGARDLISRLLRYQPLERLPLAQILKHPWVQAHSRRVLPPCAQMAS
measured.metric: Kd (nM)
// return numeric value only (unit: nM, not printed)

Task: State the recorded Kd for this entry: O=C(Nc1ccc2cc(C(=O)Nc3nccs3)ccc2c1)c1ccc(Cl)c(Cl)c1
Result: 289

----------
target: Mitogen-activated protein kinase 15 (Homo sapiens); assay: Binding affinity to wild-type human partial length ERK8 (M1 to P437 residues) expressed in bacterial expression system measured after 1 hr by kinomescan method; details: pooled result: one value given for 7 cell lines, strains, targets or settings
Sequence (Q8TD08 whole entry, the tested form may be a part): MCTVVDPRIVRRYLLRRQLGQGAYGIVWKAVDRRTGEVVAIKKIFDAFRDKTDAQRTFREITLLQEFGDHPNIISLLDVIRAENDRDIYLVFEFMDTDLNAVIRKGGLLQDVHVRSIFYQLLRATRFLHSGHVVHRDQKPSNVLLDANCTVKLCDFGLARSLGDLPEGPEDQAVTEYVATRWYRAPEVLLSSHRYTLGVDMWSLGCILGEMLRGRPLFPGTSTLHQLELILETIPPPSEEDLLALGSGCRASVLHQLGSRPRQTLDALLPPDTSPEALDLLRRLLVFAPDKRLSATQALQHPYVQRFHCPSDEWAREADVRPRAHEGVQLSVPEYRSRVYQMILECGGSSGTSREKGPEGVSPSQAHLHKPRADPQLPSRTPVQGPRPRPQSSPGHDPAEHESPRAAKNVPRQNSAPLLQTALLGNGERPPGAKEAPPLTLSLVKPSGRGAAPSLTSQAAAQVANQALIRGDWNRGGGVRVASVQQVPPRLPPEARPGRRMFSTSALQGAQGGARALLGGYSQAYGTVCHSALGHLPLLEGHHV
measured.metric: pKd
The value called pKd is obtained by taking minus log10 of the concentration in mol/L.

Task: Form: Entry = O=C(Nc1ccc2cc(C(=O)Nc3nccs3)ccc2c1)c1ccc(Cl)c(Cl)c1 | System = Mitogen-activated protein kinase 15 (Homo sapiens) | pKd = ____
Result: 5.27
